assay: Dexamethasone level in anterior chamber after 50 μL depot (GLP study); type: in vivo, New Zealand White (NZW) rabbits; settings: both sexes, New Zealand White, rabbit, topical, Day 5, 50 μL depot 10:72:18
test_readout: concentration at 5 day (ng/mL)
Report the figure in ng/mL without appending any unit label.

In: Bench note: what concentration at 5 day did "C[C@@H]1C[C@H]2[C@@H]3CCC4=CC(=O)C=C[C@]4(C)[C@@]3(F)[C@@H](O)C[C@]2(C)[C@@]1(O)C(=O)CO" show?
Out: 4.14

====

test: Dexamethasone in eye tissues and fluids after one 25 μL depot instillation; conditions: female, New Zealand White, rabbit, cornea, topical, 25 μL, Dexamethasone, Cornea Average (±SD), Day 8; one 25 μL instillation
test_readout: concentration at 8 day
Please answer using a numeric value trailed by its unit.

In: So what's the measured concentration at 8 day for this one? "C[C@@H]1C[C@H]2[C@@H]3CCC4=CC(=O)C=C[C@]4(C)[C@@]3(F)[C@@H](O)C[C@]2(C)[C@@]1(O)C(=O)CO"
Out: 284 ng/g

====

test: Dexamethasone in eye tissues and fluids after one 25 μL depot instillation; details: female, New Zealand White, rabbit, iris/ciliary body, topical, 25 μL, Dexamethasone, Iris/Ciliary Body Average (±SD), Hr 8; one 25 μL instillation
test_readout: concentration at 8 h (ng/g)
Provide the reading as a plain figure in ng/g.

In: Look at this compound and give its reported concentration at 8 h. "C[C@@H]1C[C@H]2[C@@H]3CCC4=CC(=O)C=C[C@]4(C)[C@@]3(F)[C@@H](O)C[C@]2(C)[C@@]1(O)C(=O)CO"
Out: 123

====

test: Dexamethasone in eye tissues and fluids after one 25 μL depot instillation; settings: female, New Zealand White, rabbit, iris/ciliary body, topical, 25 μL, Dexamethasone, Iris/Ciliary Body Tissue, Day 14; per eye; one 25 μL instillation
test_readout: concentration at 14 day
A complete answer gives the number followed by the unit.

In: Would you mind telling me what concentration at 14 day value was observed for "C[C@@H]1C[C@H]2[C@@H]3CCC4=CC(=O)C=C[C@]4(C)[C@@]3(F)[C@@H](O)C[C@]2(C)[C@@]1(O)C(=O)CO" ?
Out: 1.2 ng/g

====

test: Dexamethasone in eye tissues and fluids after one 25 μL depot instillation; details: female, New Zealand White, rabbit, conjunctiva, topical, 25 μL, Dexamethasone, Conjunctiva Average (±SD), Day 14; one 25 μL instillation
test_readout: concentration at 14 day (ng/g)
Give the value, in units of ng/g, as a plain number.

In: Sample "C[C@@H]1C[C@H]2[C@@H]3CCC4=CC(=O)C=C[C@]4(C)[C@@]3(F)[C@@H](O)C[C@]2(C)[C@@]1(O)C(=O)CO" — what was its concentration at 14 day?
Out: 53.8

====

experiment: Dexamethasone level in anterior chamber after 50 μL depot (GLP study); assay type: in vivo, New Zealand White (NZW) rabbits; details: both sexes, New Zealand White, rabbit, topical, Day 7, 50 μL depot 10:72:18
test_readout: concentration at 7 day (ng/mL)
Number in ng/mL, nothing else.

In: Name the recorded concentration at 7 day for C[C@@H]1C[C@H]2[C@@H]3CCC4=CC(=O)C=C[C@]4(C)[C@@]3(F)[C@@H](O)C[C@]2(C)[C@@]1(O)C(=O)CO [Dexamethasone, dexamethasone] .
Out: 4.08

====

test: Dexamethasone in eye tissues and fluids after one 25 μL depot instillation; conditions: female, New Zealand White, rabbit, cornea, topical, 25 μL, Dexamethasone, Cornea Average (±SD), Hr 8; one 25 μL instillation
test_readout: concentration at 8 h (ng/g)
Numbers only here, please. The scale is ng/g.

In: concentration at 8 h lookup needed for "C[C@@H]1C[C@H]2[C@@H]3CCC4=CC(=O)C=C[C@]4(C)[C@@]3(F)[C@@H](O)C[C@]2(C)[C@@]1(O)C(=O)CO" , thanks.
Out: 560

====

assay: Dexamethasone in eye tissues and fluids after one 25 μL depot instillation; details: female, New Zealand White, rabbit, conjunctiva, topical, 25 μL, Dexamethasone, Conjunctiva Average (±SD), Day 8; one 25 μL instillation
test_readout: concentration at 8 day (ng/g)
Unit ng/g implied. Number only.

In: Returns the measured concentration at 8 day for the input compound. Input: C[C@@H]1C[C@H]2[C@@H]3CCC4=CC(=O)C=C[C@]4(C)[C@@]3(F)[C@@H](O)C[C@]2(C)[C@@]1(O)C(=O)CO [Dexamethasone, dexamethasone]
Out: 1630
